System Under Test: Bcl-2 protein (Recombinant Human Bcl-2 Protein) (Homo sapiens, UniProt P10415)
Construct: purchased Novus NBP2-34889
Sequence (P10415 whole entry): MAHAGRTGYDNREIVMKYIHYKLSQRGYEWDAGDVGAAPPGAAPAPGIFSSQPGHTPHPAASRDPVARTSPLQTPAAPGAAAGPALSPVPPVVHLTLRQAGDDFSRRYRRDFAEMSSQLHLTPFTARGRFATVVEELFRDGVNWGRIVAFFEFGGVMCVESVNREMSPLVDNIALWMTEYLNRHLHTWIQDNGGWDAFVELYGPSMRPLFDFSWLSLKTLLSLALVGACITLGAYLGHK
Assay Name: Binding evaluation of mixture library compounds to Bcl-2 using AS-MS (affinity selection mass spectrometry)
Conditions: AS-MS, mixture library, Bcl-2; replicate n = 2; ASMS Ratio(%)=(A−C)/B×100
Catalogue of compounds with associated ASMS ratio (%) n = 2
Entry rule: numbers only, all in %.

Compound	ASMS ratio (%) n = 2
CCOc1cncc(-c2ccc(C(=O)N3CCN(c4ccc(C(=O)NS(=O)(=O)CC56CC7CC(CC(C7)C5)C6)cc4)CC3)cc2C)c1 [B2A026-01]	−2.1
CCOc1cncc(-c2cc(CN3CCN(c4ccc(C(=O)NS(=O)(=O)c5ccc(NCCSc6ccccc6)c([N+](=O)[O-])c5)cc4)CC3)cc(OCC)c2)c1 [B2Q056-01]	2.8
CCOc1cccc(-c2ccc(C(=O)N3CCN(c4ccc(C(=O)NS(C)(=O)=O)nn4)CC3)cc2C)c1 [B2I003-01]	0.0

Problem: Under Bcl-2 protein (Recombinant Human Bcl-2 Protein) (Homo sapiens, UniProt P10415): ASMS ratio (%) n = 2 value of CCOc1cccc(-c2ccc(CN3CCN(c4ccc(C(=O)NS(=O)(=O)c5ccc(NCCSc6ccccc6)c([N+](=O)[O-])c5)cc4)CC3)cc2C)c1 [B2Q047-01] ?
Solution: 326.4

Problem: Also, CCOc1cncc(-c2ccc(CN3CCN(c4ccc(C(=O)N(CC)CC)nn4)CC3)c(CC)c2)c1 [B4J076-01] please.
Solution: 0.0

Problem: What about CCOc1cccc(-c2ccc(C(C)N3CCN(c4ccc(C(=O)NS(=O)(=O)CC56CC7CC(CC(C7)C5)C6)cc4)CC3)cc2)c1 (stereo not shown) [B2A097-01] ?
Solution: 0.4

Problem: Then what about the compound CCOc1cccc(-c2ccc(CN3CCN(c4ccc(C(=O)N(CC)CC)nn4)CC3)c(OC)c2)c1 [B4J079-01] ?
Solution: 0.0

Problem: Could you do the same for CCOc1cncc(-c2cc(C(=O)N3CCN(c4ccc(C(=O)NS(=O)(=O)c5ccc(NCCSc6ccccc6)c([N+](=O)[O-])c5)cc4)CC3)cc(C(C)(C)C)c2)c1 [B2Q038-01] , please?
Solution: 0.4

Problem: Repeat with CCOc1cccc(-c2cc(OC)c(CN3CCN(c4ccc(C(=O)NS(=O)(=O)CC56CC7CC(CC(C7)C5)C6)cc4)CC3)c(OC)c2)c1 [B2A059-01]
Solution: −42.2

Problem: Moving on to the next compound: CCOc1cccc(-c2cc(CN3CCN(c4ccc(C(=O)NS(=O)(=O)CC56CC7CC(CC(C7)C5)C6)nn4)CC3)cc(OC(C)C)c2)c1 [B2A083-01]
Solution: 0.0

Problem: Then what about the compound CCOc1cccc(-c2ccc(C(C)N3CCN(c4ccc(C(=O)N(CC)CC)cc4)CC3)cc2)c1 (stereo not shown) [B4J097-01] ?
Solution: −0.4

Problem: CCOc1cccc(-c2ccc(CN3CCN(c4ccc(C(=O)NS(=O)(=O)c5ccc(NCCSc6ccccc6)c([N+](=O)[O-])c5)cc4)CC3)c3ccccc23)c1 [B2Q065-01] ?
Solution: −1.6

Problem: Similarly, CCOc1cncc(C#Cc2ccccc2C(=O)N2CCN(c3ccc(C(=O)NS(C)(=O)=O)cc3)CC2)c1 [B2I030-01] ?
Solution: 0.0
